Data provenance is ChEMBL document CHEMBL3259682.

Provide the reported IC50 of each item.
System: Plasmodium falciparum
experimental-protocol: Antimalarial activity against erythrocytic stage of chloroquine/pyrimethamine-resistant Plasmodium falciparum K1 after 48 hrs by [3H]-hypoxanthine incorporation assay
Assay type: functional, organism-based

Record excerpt, results attached:
| molecule | assay-target | IC50 |
| --- | --- | --- |
| NCCCNc1nc2ccccc2c2[nH]c3ccccc3c12 | Plasmodium falciparum | 82.7 nM |
| CC(C)(CNC(=O)Nc1ccccc1)CNc1nc2ccc(Cl)cc2c2[nH]c3ccccc3c12 | Plasmodium falciparum | 16.9 nM |
| COc1ccc2nc(NCCCNC(=O)Nc3ccccc3)c3c4ccccc4[nH]c3c2c1 | Plasmodium falciparum | 19.6 nM |
| Cn1c2ccccc2c2c(NCCCN)nc3ccccc3c21 | Plasmodium falciparum | 85.4 nM |
| O=C(NCCCNc1nc2ccc(Br)cc2c2[nH]c3ccccc3c12)Nc1ccccc1 | Plasmodium falciparum | 36.9 nM |

Provide IC50 values for the following items, in order.
1. O=C(NCCCNc1nc2ccc(Cl)cc2c2[nH]c3ccccc3c12)Nc1ccccc1
2. O=C(NCCCNc1nc2ccc(F)cc2c2[nH]c3ccccc3c12)Nc1ccccc1
3. CC(CNC(=O)Nc1ccccc1)CNc1nc2ccc(Cl)cc2c2[nH]c3ccccc3c12 (stereo unspecified)
4. O=C(NCCCNc1nc2ccccc2c2[nH]c3ccccc3c12)c1cccs1
5. Cc1ccc2nc(NCCCNC(=O)Nc3ccccc3)c3c4ccccc4[nH]c3c2c1
6. S=C(NCCCNc1nc2ccccc2c2[nH]c3ccccc3c12)Nc1ccccc1
7. CC(C)(CN)CNc1nc2ccc(Cl)cc2c2[nH]c3ccccc3c12
8. CC(CN)CNc1nc2ccc(Cl)cc2c2[nH]c3ccccc3c12 (stereo unspecified)

1. 50 nM
2. 49.2 nM
3. 17.5 nM
4. 84.9 nM
5. 42.5 nM
6. 49.3 nM
7. 51 nM
8. 59 nM
